# maps each entry to its LC retention time
Assay: HILIC, Waters ACQUITY UPLC BEH Amide, 100 × 2.1 mm, 1.7 µm; A: water + 0.125% formic acid + 10 mM ammonium formate; B: 5% water + 95% acetonitrile + 0.125% formic acid + 10 mM ammonium formate; gradient (min/%B) 0/100 2/100 7.7/70 9.5/40 10.25/30 12.75/100 17/100
Details: stereoisomer not certain
Express it in min; write the number only.

• Cc1cccc(Nc2ccncc2S(=O)(=O)NC(=O)NC(C)C)c1 [Torasemide] = 1.45
• CSCC1OC(n2cnc3c(N)ncnc32)C(O)C1O (centres undefined) = 2.49
• Nc1nc2ccc(Cl)cc2c2nc(-c3ccco3)nn12 = 1.07
• Cc1ccsc1C(=CCCN1CCCC(C(=O)O)C1)c1sccc1C (centres undefined) = 3.94
• O=C(C=Cc1ccccc1O)c1ccccc1 [2-Hydroxychalcone] = 1.01
• CN1C(=O)CCC1c1ccc[n+]([O-])c1 [(S)-Cotinine N-oxide] = 3.87
• COc1ccc2[nH]cc(CCN)c2c1 = 4.99
• Nc1nc(=O)n(C2OC(CO)C(O)C2O)cc1CO (centres undefined) [5-Hydroxymethylcytidine] = 7.54

Please supply the value of reported LC retention time for the item O=C(CCc1ccc(O)cc1)c1c(O)cc(O)cc1O
1.5

For the compound COc1ccccc1N1CCN(CCCNc2cc(=O)n(C)c(=O)n2C)CC1 , report LC retention time.
4.58

Using the record for CC(C)=CCCC(C)=CC(=O)O , state its measured LC retention time.
1.3

Quick one: give measured LC retention time for CN1C(=O)CN=C(c2ccccc2)c2cc([N+](=O)[O-])ccc21
0.98

Name the recorded LC retention time of the compound listed here: Nc1nc(N)nc(-c2cc(Cl)ccc2Cl)n1
1.25

Indicate its recorded LC retention time; the compound in question is CNCC(=O)O
7.82

Quote LC retention time reported for CNCCC(Oc1cccc2ccccc12)c1cccs1 (centres undefined) please.
2.6

For the compound CC12CCC(=O)C=C1CCC1C2CCC2(C)C1CCC2(O)C(=O)CO (centres undefined) , report LC retention time.
1.15

Identify LC retention time associated with the compound CSCCC(=O)C(=O)O
0.92

Input CCCCC(=O)N(Cc1ccc(-c2ccccc2-c2nn[nH]n2)cc1)C(C(=O)O)C(C)C (centres undefined) , output reported LC retention time.
1.69

Identify LC retention time associated with the compound COc1ccc2[nH]cc(CCNC(C)=O)c2c1
1.24

Return LC retention time (reported value) for this compound: CC(C)OC(=O)CCCC=CCC1C(O)CC(O)C1CCC(O)CCc1ccccc1 (centres undefined)
1.06

Report LC retention time, nothing else, for this compound: CC(=O)NC1C(O)CC(O)(C(=O)O)OC1C(O)C(O)CO (centres undefined)
9.26

Identify LC retention time associated with the compound O=C(O)c1cc(O)ccc1O
3.18

Query LC retention time for Cc1ncc(CO)c(CO)c1O
3.78

Give LC retention time for the following compound: CCC(COC(=O)c1cc(OC)c(OC)c(OC)c1)(c1ccccc1)N(C)C (centres undefined)
1.47

Return the recorded LC retention time value; entry: CC(C)(O)CC(=O)O [beta-Hydroxyisovaleric acid]
4.55

Output LC retention time of CC(NC(CCCN=C(N)N)C(=O)O)C(=O)O (centres undefined)
10.3

For the compound CSCCC(NC(C)=O)C(=O)O (centres undefined) , give its measured LC retention time value.
3.23

Read the entry CCC(=O)OC(CC(=O)[O-])C[N+](C)(C)C (centres undefined) and write its reported LC retention time.
6.41
